- Subject Of Test: T1, Human CD137 ECD (human)
- T1 construct: entry includes C-terminal His-tag and biotin acceptor peptide; also called human CD137 extracellular domain; 4-1BB
- Test: Biacore SPR, vs parent H183/L072
Measured Quantity: fold change of affinity (fold)
Numbers only, in fold.

A selection of reference data follows.
Binder: H183/L072 VL L27bK (antibody, name in Kabat numbering, V domains shown, Dual-Ig) VH: QVQLVESGGGLVQPGRSLRLSCAASGFTFSNAWMHWVRQAPGKGLEWVAQIKDKGNAYAAYYAPSVKGRFTISRDDSKNSIYLQMNSLKTEDTAVYYCHYVHYASASTVLPAFGVDAWGQGTTVTVSS VL: DIVMTQSPLSLPVTPGEPASISCQASQEKVHMNRNTYLHWYQQKPGQAPRLLIYKVSNRFPGVPDRFSGSGSGTDFTLKISRVEAEDVGVYYCAQGTSVPFTFGQGTKLEIK
Unit Info: fold
fold change of affinity: 0.3
--
Binder: H183/L072 VL E27aT (antibody, name in Kabat numbering, V domains shown, Dual-Ig) VH: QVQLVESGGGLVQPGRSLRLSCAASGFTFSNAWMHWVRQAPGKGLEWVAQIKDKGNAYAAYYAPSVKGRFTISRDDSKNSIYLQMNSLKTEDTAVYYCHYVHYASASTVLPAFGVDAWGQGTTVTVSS VL: DIVMTQSPLSLPVTPGEPASISCQASQTLVHMNRNTYLHWYQQKPGQAPRLLIYKVSNRFPGVPDRFSGSGSGTDFTLKISRVEAEDVGVYYCAQGTSVPFTFGQGTKLEIK
Unit Info: fold
fold change of affinity: 0.5

Now let's try a different one.
Ask | Recorded fold change of affinity of H183/L072 VL G91F (antibody, name in Kabat numbering, V domains shown, Dual-Ig) VH: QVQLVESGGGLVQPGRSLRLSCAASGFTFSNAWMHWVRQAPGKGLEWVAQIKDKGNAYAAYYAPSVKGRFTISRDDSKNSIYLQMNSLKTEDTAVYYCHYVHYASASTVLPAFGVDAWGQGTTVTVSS VL: DIVMTQSPLSLPVTPGEPASISCQASQELVHMNRNTYLHWYQQKPGQAPRLLIYKVSNRFPGVPDRFSGSGSGTDFTLKISRVEAEDVGVYYCAQFTSVPFTFGQGTKLEIK , please.
Reply | 0
